- Tested on: Salmonella typhimurium 420
- ASSAY SUMMARY: MIC, liquid medium dilution
- Assay type: cell-based
- ASSAY SETUP: Salmonella enterica, 24 h
METRIC NAME: MIC (µg/mL)
Output spec: scalar in µg/mL, unitless text.

Field: example entries. Status: answers known.
MOLECULE | SYSTEM | METRIC NAME | UNIT LABEL | ASSAY RESULT
CO/N=C(/C(=O)NC1C(=O)N2C(C(=O)O)=C(CSC(C)=O)CSC12)c1csc(N)n1 (stereo not shown) | Salmonella typhimurium 420 | MIC | µg/mL | 40
CO/N=C(\C(=O)NC1C(=O)N2C(C(=O)O)=C(CSc3nnnn3C)CS[C@H]12)c1csc(N)n1 (stereo partly shown) | Salmonella typhimurium 420 | MIC | µg/mL | 0.2

Attention now shifts to the item below.
In: State the recorded MIC for this entry: CO/N=C(\C(=O)NC1C(=O)N2C(C(=O)O)=C(CSC(C)=O)CSC12)c1csc(N)n1 (stereo not shown)
Out: 0.4
